Reference source: patent WO2021223719A1

# MEASURED_ON: FMC63-scFv-mFc protein
# EXPERIMENT_DESCRIPTION: ELISA, plate coated with FMC63-scFv-mFc, biotin-labelled FMC63-scFv-mFc for detection
Let's look at some binders and their measured EC50.
A number alone suffices; assume µg/mL.

Guide cases for EC50, answers given:
{"BINDER": "mAb020 (52H8C4) (antibody, human IgG1, kappa, V domains shown, Tested as the murine hybridoma antibody) VH: EVMLVESGGGLVKPGGSLKLSCAASGFTFSSYTMSWVRQTPEKRLEWVATITGGGGDTFYPDSVKGRFTISRDNAKNTLYLQVSSLRSEDTAVYHCARQYYDYDGGAMDYWGQGTSVTVSS VL: DIVLTQSPASLAVSLGQRAIISCKASQSVSFAGTGLMHWYQQKPGQQPKLLIYRASNLEAGVPTRFSGSGSRTDFTLNIHPVEEDDAATYYCQQSREYPRTFGGGTKLEIKR", "EC50 / µg/mL": 0.113}
{"BINDER": "mAb023 (75H6C7) (antibody, V domains shown) VH: QAQLQQPGAELVMPGASVKLSCKASGYTFTNYWMNWMKQRPGQGLEWIGEIDPSDSDKNYNQKFKDKATLTVDKSSSTAYMQLSSLTSEDSAVYYCAGGYYGMDFWGQGTSVTVSS VL: DVVMTQTPLSLPVSLGDQASISCRSSQSLENSKGNTYLNWYVQKPGQSPQLLIYRVSTRFSGVLDRFSGSGSGTDFTLKISRVEAEDLGVYFCLQLTHVPFTFGSGTKLEIK", "EC50 / µg/mL": 0.0512}

Continue with the binder presented below.
Qu. Would you mind telling me what EC50 value was observed for mAb02 (8B3H4) (antibody, human IgG1, kappa, V domains shown, Tested as the murine hybridoma antibody) VH: QVQVQQPGAELVKPGASVRLSCKASGYTFTTYWMHWVKQRPGQGLEWIGMIHPNSDSINYNEKFKSKATLIVDKSSSTFYMQLSSLTSEDSAVYYCARTDGYYAPYFAMDYWGQGTSVTVSS VL: DIQMTQTTSSLSASLGDRVTISCRASQDIRDNLNWYQQKPDGTVKLLIYYKSRSHSGVPSRFSGSGSGTDYSLTISNLEQEDIATYFCQQGNTLPFTFGSGTKLEIKR ?
Ans. 0.023
